The origin of these recorded values is PubChem BioAssay AID1963843.

Test system: 616215-338-R-J1-PDC complex spheroid viability;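 note: spheroids exposed to compounds for one week before readout; percent viability relative to DMSO vehicle wells taken as 100%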
Assay: Anticancer human tumor 616215-338-R-J1-PDC patient-derived colon adenocarcinoma cell line growth inhibition [POLQ]
Settings: second compound 1 µM; first compound 3.16 µM; hits give low values
readout_label: viability, T/C (%)

• C#Cc1c(F)ccc2cc(O)cc(-c3ncc4c(N5CC6CCC(C5)N6)nc(OCC56CCCN5CC(F)C6)nc4c3F)c12 (stereo not given) + Nc1ccc(C#CCN(C(=O)Cc2ncc(C(F)(F)F)cc2C(F)(F)F)c2ccc(F)cc2)nn1 = 53.7
• CCCS(=O)(=O)Nc1ccc(F)c(C(=O)c2c[nH]c3ncc(-c4ccc(Cl)cc4)cc23)c1F + Cc1cccc(N(C)C(=O)C2C(O)CCN2c2nc(C)cc(C(F)(F)F)c2C#N)c1 = 86.9
• CNCc1ccc(-c2[nH]c3cc(F)cc4c3c2CCNC4=O)cc1 + Nc1ccc(C#CCN(C(=O)Cc2ncc(C(F)(F)F)cc2C(F)(F)F)c2ccc(F)cc2)nn1 = 106
• CC1COCCN1c1cc(-c2ccnn2C)c2ccnc(-c3ccn[nH]3)c2n1 (stereo not given) + COC1C(OC(N)=O)C(O)C(Oc2ccc3c(O)c(NC(=O)c4ccc(O)c(CC=C(C)C)c4)c(=O)oc3c2C)OC1(C)C = 29
• COc1cccc2c1C(=O)c1c(O)c3c(c(O)c1C2=O)CC(O)(C(=O)CO)CC3OC1CC(N)C(O)C(C)O1 (stereo not given) + Cc1cccc(N(C)C(=O)C2C(O)CCN2c2nc(C)cc(C(F)(F)F)c2C#N)c1 = 3.44
• CC(C)n1c(=O)n(C)c2cnc3cc(F)c(-c4ccc(OCCCN5CCCCC5)nc4)cc3c21 + COC1C(OC(N)=O)C(O)C(Oc2ccc3c(O)c(NC(=O)c4ccc(O)c(CC=C(C)C)c4)c(=O)oc3c2C)OC1(C)C = 116
• CCc1cc2c(N3CCc4c(cc(Cn5ccnc5)cc4-c4cn(C)nc4C(F)(F)F)C3=O)ccnc2c(OC)n1 + COC1C(OC(N)=O)C(O)C(Oc2ccc3c(O)c(NC(=O)c4ccc(O)c(CC=C(C)C)c4)c(=O)oc3c2C)OC1(C)C = 81.4
• COc1ccc([C@@H](O)c2cc(-c3ncnc4cc(N5CCOCC5)ccc34)c(F)cc2Cl)nn1 + Cc1cccc(N(C)C(=O)C2C(O)CCN2c2nc(C)cc(C(F)(F)F)c2C#N)c1 = 103
• O=C(Nc1ccc(O)c(NS(=O)(=O)c2ccc(F)cc2)c1)c1ccc(-c2ccccc2)cc1 + COC1C(OC(N)=O)C(O)C(Oc2ccc3c(O)c(NC(=O)c4ccc(O)c(CC=C(C)C)c4)c(=O)oc3c2C)OC1(C)C = 101
• O=c1[nH]cc(F)c(=O)[nH]1 + Nc1ccc(C#CCN(C(=O)Cc2ncc(C(F)(F)F)cc2C(F)(F)F)c2ccc(F)cc2)nn1 = 38.4
